- experimental-protocol: Effect on the activity of prolyl endopeptidase (PEP) was evaluated at 1 mM concentration for DPP IV
pIC50: −log10 of the molar value.

{"compound": "CC(=O)Nc1cccc(OP(=O)(Oc2cccc(NC(C)=O)c2)C2CCCN2C(=O)C2CCCN2)c1 (stereo unspecified)", "pIC50": 4.30}
